In this section we review reported IC50 values for a set of molecules.
# target-of-assay: UniProt Q99705
# assay-explanation: High throughput functional screening FLIPR/FDSS6000: inhibition of MCH-evoked intracellular Ca2+ changes
# Format: cell-based
# run-conditions: class by percent of control at 10^-7 M or by IC50; read-out: class

chemical-smiles	property	result
Cc1cccc(C)c1NC(=O)N[C@H]1CC[C@@H](Nc2nc(N(C)C)c3ccccc3n2)CC1	IC50	< 0.05 µM
COCCOC(=O)NC[C@H]1CC[C@@H](Nc2nc(N(C)C)c3ccccc3n2)CC1	IC50	> 0.2 µM
Cc1ccc(F)cc1NC(=O)N[C@H]1CC[C@@H](Nc2nc(N(C)C)c3ccccc3n2)CC1	IC50	0.05 to 0.2 µM
CN(C)c1nc(N[C@H]2CC[C@@H](CNC(=S)Nc3ccc(Oc4ccccc4)nc3)CC2)nc2ccccc12	IC50	> 0.2 µM
COc1ccc(NC(=O)N[C@H]2CC[C@@H](Nc3nc(N(C)C)c4ccccc4n3)CC2)c(OC)c1	IC50	< 0.05 µM
CN(C)c1nc(N[C@H]2CC[C@@H](NC(=S)Nc3cc(F)ccc3F)CC2)nc2ccccc12	IC50	> 0.2 µM

// below: IC50 requested for another molecule
Query :: API: value(readout=IC50, system=UniProt Q99705) for record `Cc1cccc([N+](=O)[O-])c1NC(=O)N[C@H]1CC[C@@H](Nc2nc(N(C)C)c3ccccc3n2)CC1`
Result :: > 0.2 µM

---

# target-of-assay: UniProt Q99705
# assay-explanation: High throughput functional screening FLIPR/FDSS6000: inhibition of MCH-evoked intracellular Ca2+ changes
# Assay type: cell-based
# run-conditions: class by percent of control at 10^−7 M or by IC50; read-out: class
property: IC50

Answered examples (3):
compound	IC50
CN(C)c1nc(N[C@H]2CC[C@@H](NC(=O)COc3ccc(Cl)c(Cl)c3)CC2)nc2ccccc12	< 0.05 µM
COc1cccc(NCC(=O)N[C@H]2CC[C@@H](Nc3nc(N(C)C)c4ccccc4n3)CC2)c1	< 0.05 µM
COc1ccccc1NC(=O)NC[C@H]1CC[C@@H](Nc2nc(N(C)C)c3ccccc3n2)CC1	0.05 to 0.2 µM

// below: IC50 requested for another compound
Query :: API: value(readout=IC50, system=UniProt Q99705) for record COc1ccc(C(O)C(=O)N[C@H]2CC[C@@H](Nc3nc(N(C)C)c4ccccc4n3)CC2)cc1 (relative stereo)
Result :: < 0.05 µM

---

In this section we review reported pIC50 values for a set of molecules.
# target-of-assay: UniProt:Q99705
# assay-explanation: High throughput functional screening FLIPR/FDSS6000: inhibition of MCH-evoked intracellular Ca2+ changes
# Format: cell-based
# run-conditions: class by percent of control at 10^-7 M or by IC50; read-out: class
pIC50: −log10 of the molar value.

molecule	pIC50
CN(C)c1nc(N[C@H]2CC[C@@H](NC(=O)Nc3ccc4c(c3)OCO4)CC2)nc2ccccc12 [compound 120]	> 7.30
COc1cc(NC(=O)N[C@H]2CC[C@@H](Nc3nc(N(C)C)c4ccccc4n3)CC2)cc(OC)c1 [compound 126]	6.70 to 7.30
COC(=O)[C@H](CCSC)NC(=O)N[C@H]1CC[C@@H](Nc2nc(N(C)C)c3ccccc3n2)CC1 (relative stereo) [compound 41]	> 7.30

Query :: Entry under review: CN(C)c1nc(N[C@H]2CC[C@@H](NC(=O)Nc3ccc(C#N)cc3)CC2)nc2ccccc12 [compound 149] . Reported pIC50?
Result :: > 7.30

Query :: Entry under review: CN(C)c1nc(N[C@H]2CC[C@@H](NC(=O)NCc3ccccc3F)CC2)nc2ccccc12 [compound 100] . Reported pIC50?
Result :: > 7.30

Query :: Entry under review: CN(C)c1nc(N[C@H]2CC[C@@H](NC(=O)NC3c4ccccc4-c4ccccc43)CC2)nc2ccccc12 [compound 840] . Reported pIC50?
Result :: < 6.70

Query :: Entry under review: CN(C)c1nc(N[C@H]2CC[C@@H](NC(=O)Nc3ccc(F)cc3)CC2)nc2ccccc12 [compound 36] . Reported pIC50?
Result :: > 7.30

Query :: Entry under review: CCOC(=O)N[C@H]1CC[C@@H](Nc2nc(N(C)C)c3ccccc3n2)CC1 [compound 854] . Reported pIC50?
Result :: < 6.70

---

# target-of-assay: MCH receptor (Homo sapiens, UniProt Q99705)
# assay-explanation: High throughput functional screening FLIPR/FDSS6000: inhibition of MCH-evoked intracellular Ca2+ changes
# Format: cell-based
# run-conditions: class by percent of control at 10^-7 M or by IC50; read-out: class
property: IC50

compound	IC50
CN(C)c1nc(N[C@H]2CC[C@@H](NC(=S)Nc3ccc(Cl)cc3Cl)CC2)nc2ccccc12	< 50 nM
CSc1ccc(NC(=S)N[C@H]2CC[C@@H](Nc3nc(N(C)C)c4ccccc4n3)CC2)cc1	50 to 200 nM
COC(=O)c1cccc(NC(=O)N[C@H]2CC[C@@H](Nc3nc(N(C)C)c4ccccc4n3)CC2)c1	50 to 200 nM
CC(NC(=O)NC1CCC(Nc2nc(N(C)C)c3ccccc3n2)CC1)c1cccc2ccccc12 (stereo not shown)	50 to 200 nM
CN(C)c1nc(N[C@H]2CC[C@@H](NC(=S)Nc3cccc(Br)c3)CC2)nc2ccccc12	> 200 nM

Query :: Entry under review: `CN(C)c1nc(N[C@H]2CC[C@@H](NC(=O)Nc3ccc(Cl)cc3C(F)(F)F)CC2)nc2ccccc12` . Reported IC50?
Result :: < 50 nM

Query :: Entry under review: `CCc1cccc(C(C)C)c1NC(=O)N[C@H]1CC[C@@H](Nc2nc(N(C)C)c3ccccc3n2)CC1` . Reported IC50?
Result :: < 50 nM

---

In this section we review reported pIC50 values for a set of compounds.
# target-of-assay: UniProtKB Q99705
# assay-explanation: High throughput functional screening FLIPR/FDSS6000: inhibition of MCH-evoked intracellular Ca2+ changes
# Type: cell-based
# run-conditions: class by percent of control at 10^-7 M or by IC50; read-out: class
pIC50: −log10 of the molar value.

Answered examples (3):
chemical-smiles	target-of-assay	property	result
Cc1ccc(NC(=S)N[C@H]2CC[C@@H](Nc3nc(N(C)C)c4ccccc4n3)CC2)cc1	UniProtKB Q99705	pIC50	6.70 to 7.30
CCCCOc1ccc(NC(=O)N[C@H]2CC[C@@H](Nc3nc(N(C)C)c4ccccc4n3)CC2)cc1	UniProtKB Q99705	pIC50	< 6.70
CN(C)c1nc(N[C@H]2CC[C@@H](NC(=O)Nc3ccc(Cc4ccccc4)cc3)CC2)nc2ccccc12	UniProtKB Q99705	pIC50	< 6.70

// below: pIC50 requested for another compound
Query :: Entry under review: `CN(C)c1nc(N[C@H]2CC[C@@H](NC(=S)Nc3ccccc3Cl)CC2)nc2ccccc12` . Reported pIC50?
Result :: < 6.70

---

# target-of-assay: MCH receptor (Homo sapiens)
# assay-explanation: High throughput functional screening FLIPR/FDSS6000: inhibition of MCH-evoked intracellular Ca2+ changes
# Format: cell-based
# run-conditions: class by percent of control at 10^-7 M or by IC50; read-out: class
In this section we review reported IC50 values for a set of molecules.

molecule	IC50
CCc1cccc(CC)c1NC(=O)N[C@H]1CC[C@@H](Nc2nc(N(C)C)c3ccccc3n2)CC1	< 50 nM
CN(C)c1nc(N[C@H]2CC[C@@H](NC(=S)NCc3ccc4c(c3)OCO4)CC2)nc2ccccc12	50 to 200 nM
CC(NC(=O)N[C@H]1CC[C@@H](Nc2nc(N(C)C)c3ccccc3n2)CC1)c1ccc(Br)cc1 (relative stereo)	< 50 nM
CN(C)c1nc(N[C@H]2CC[C@@H](NC(=O)NC34CC5CC(CC(C5)C3)C4)CC2)nc2ccccc12 (relative stereo)	> 200 nM
CN(C)c1nc(N[C@H]2CC[C@@H](NC(=O)Nc3ccccc3-c3ccccc3)CC2)nc2ccccc12	< 50 nM
CN(C)c1nc(N[C@H]2CC[C@@H](NC(=O)Nc3ccc(OCc4ccccc4)cc3)CC2)nc2ccccc12	> 200 nM
CN(C)c1nc(N[C@H]2CC[C@@H](NC(=O)Nc3ccc4ccccc4c3)CC2)nc2ccccc12	> 200 nM
Cc1cccc(NC(=O)N[C@H]2CC[C@@H](Nc3nc(N(C)C)c4ccccc4n3)CC2)c1C	< 50 nM

Query :: API: value(readout=IC50, system=MCH receptor (Homo sapiens)) for record `C=C(C)CNC(=S)N[C@H]1CC[C@@H](Nc2nc(N(C)C)c3ccccc3n2)CC1`
Result :: > 200 nM

Query :: API: value(readout=IC50, system=MCH receptor (Homo sapiens)) for record `Cc1ccc(OC(=O)N[C@H]2CC[C@@H](Nc3nc(N(C)C)c4ccccc4n3)CC2)cc1`
Result :: > 200 nM

Query :: API: value(readout=IC50, system=MCH receptor (Homo sapiens)) for record `CN(C)c1nc(N[C@H]2CC[C@@H](NC(=O)Nc3ccc(Cl)c(C(F)(F)F)c3)CC2)nc2ccccc12`
Result :: > 200 nM

Query :: API: value(readout=IC50, system=MCH receptor (Homo sapiens)) for record `CN(C)c1nc(N[C@H]2CC[C@@H](NC(=O)Nc3c(F)cccc3F)CC2)nc2ccccc12`
Result :: > 200 nM

Query :: API: value(readout=IC50, system=MCH receptor (Homo sapiens)) for record `CN(C)c1nc(N[C@H]2CC[C@@H](NC(=S)Nc3ccc(Br)cc3)CC2)nc2ccccc12`
Result :: < 50 nM

Query :: API: value(readout=IC50, system=MCH receptor (Homo sapiens)) for record `COCCOC(=O)N[C@H]1CC[C@@H](Nc2nc(N(C)C)c3ccccc3n2)CC1`
Result :: > 200 nM

Query :: API: value(readout=IC50, system=MCH receptor (Homo sapiens)) for record `CCCNC(=S)N[C@H]1CC[C@@H](Nc2nc(N(C)C)c3ccccc3n2)CC1`
Result :: 50 to 200 nM
